Data credit: patent EP4818187A1

tested on: human ovarian cancer SK-OV-3; assay: Biological Example 5: in vivo xenograft model of human ovarian cancer SK-OV-3; parameters: species or system Balb/c-nu nude mice; details: SK-OV-3 xenograft, nude mice, 0.8 mg/kg i.v. qw×3
PROPERTY NAME: Maximum body weight change (%)

Incoming: // output Maximum body weight change (%); input CC[C@H](C)[C@@H]([C@@H](CC(=O)N1CCC[C@H]1[C@H](OC)[C@@H](C)C(=O)N[C@H](C)[C@@H](O)c1ccccc1)OC)N(C)C(=O)[C@@H](NC(=O)[C@H](C(C)C)[N+](C)(CC)Cc1ccc(O[C@@H]2O[C@H](C(=O)[O-])[C@@H](O)[C@H](O)[C@H]2O)cc1OCc1cn(CCCOCC(=O)Nc2ccc(-c3ccc(/N=N/c4ccc5c(S(=O)(=O)[O-])cc(S(=O)(=O)[O-])c(N)c5c4O)c(C)c3)cc2C)nn1)C(C)C.[Na+].[Na+] (stereo partly shown) ; system human ovarian cancer SK-OV-3
Outgoing: 5.7, d21%

###

Provide the recorded IC50 for the entries that follow.
test system: 22RV1 (human prostate cancer); test: In vitro inhibitory effect against human tumor cells (SRB); type: cell-based; settings: 22Rv1, 72 h, 22RV1, SRB, With addition of βGU (1 µg/well), 3 days
Give bare numbers, in nM.

Incoming: Specify reported IC50 for the molecule shown: CC[C@H](C)[C@@H]([C@@H](CC(=O)N1CCC[C@H]1[C@H](OC)[C@@H](C)C(=O)N[C@H](C)[C@@H](O)c1ccccc1)OC)N(C)C(=O)[C@@H](NC(=O)[C@H](C(C)C)[N+](C)(CC)Cc1ccc(O[C@@H]2O[C@H](C(=O)[O-])[C@@H](O)[C@H](O)[C@H]2O)cc1OCc1cn(CCCCCC(=O)Nc2ccc(-c3ccc(/N=N/c4ccc5c(S(=O)(=O)[O-])cc(S(=O)(=O)[O-])c(N)c5c4O)c(C)c3)cc2C)nn1)C(C)C.[Na+].[Na+] (some centres unmarked) [Example compound 12]
Outgoing: 2.5

Now, please, on to the next molecule.
Incoming: Specify reported IC50 for the molecule shown: CC[C@H](C)[C@@H]([C@@H](CC(=O)N1CCC[C@H]1[C@H](OC)[C@@H](C)C(=O)N[C@H](C)[C@@H](O)c1ccccc1)OC)N(C)C(=O)[C@@H](NC(=O)[C@H](C(C)C)[N+](C)(CC)Cc1ccc(O[C@@H]2O[C@H](C(=O)[O-])[C@@H](O)[C@H](O)[C@H]2O)cc1OCc1cn(CCOCCC(=O)Nc2ccc(-c3ccc(/N=N/c4ccc5c(S(=O)(=O)[O-])cc(S(=O)(=O)[O-])c(N)c5c4O)c(C)c3)cc2C)nn1)C(C)C.[Na+].[Na+] (some centres unmarked) [Example compound 8]
Outgoing: 3

###

Provide the recorded Tumor weight (g, x±S.D.) for the entries that follow.
system: human ovarian cancer SK-OV-3; test: Biological Example 5: in vivo xenograft model of human ovarian cancer SK-OV-3; design: species or system Balb/c-nu nude mice; conditions: SK-OV-3 xenograft, nude mice, 0.8 mg/kg i.v. qw×3
One number for each entry, in g.

Incoming: Specify reported Tumor weight (g, x±S.D.) for the compound shown: CC[C@H](C)[C@@H]([C@@H](CC(=O)N1CCC[C@H]1[C@H](OC)[C@@H](C)C(=O)N[C@H](C)[C@@H](O)c1ccccc1)OC)N(C)C(=O)[C@@H](NC(=O)[C@H](C(C)C)[N+](C)(CC)Cc1ccc(O[C@@H]2O[C@H](C(=O)[O-])[C@@H](O)[C@H](O)[C@H]2O)cc1OCc1cn(CCOCCC(=O)Nc2ccc(-c3ccc(/N=N/c4ccc5c(S(=O)(=O)[O-])cc(S(=O)(=O)[O-])c(N)c5c4O)c(C)c3)cc2C)nn1)C(C)C.[Na+].[Na+] (some centres unmarked)
Outgoing: 0.005

Now, please, on to the next compound.
Incoming: Specify reported Tumor weight (g, x±S.D.) for the compound shown: CC[C@H](C)[C@@H]([C@@H](CC(=O)N1CCC[C@H]1[C@H](OC)[C@@H](C)C(=O)N[C@H](C)[C@@H](O)c1ccccc1)OC)N(C)C(=O)[C@@H](NC(=O)[C@H](C(C)C)[N+](C)(CC)Cc1ccc(O[C@@H]2O[C@H](C(=O)[O-])[C@@H](O)[C@H](O)[C@H]2O)cc1OCc1cn(CCCCCC(=O)Nc2ccc(-c3ccc(/N=N/c4ccc5c(S(=O)(=O)[O-])cc(S(=O)(=O)[O-])c(N)c5c4O)c(C)c3)cc2C)nn1)C(C)C.[Na+].[Na+] (some centres unmarked)
Outgoing: 0.005

###

test system: human non-small cell lung cancer NCI-H1975; test: Biological Example 7: in vivo xenograft model of human non-small cell lung cancer NCI-H1975; set-up: species or system Balb/c-nu nude mice; conditions: nude mice, 0.8 mg/kg i.v. qw×3, End
Provide the recorded Body weight (g, x±S.D.) End for the entries that follow.
Please give the number followed by its unit.

Incoming: Specify reported Body weight (g, x±S.D.) End for the compound shown: CC[C@H](C)[C@@H]([C@@H](CC(=O)N1CCC[C@H]1[C@H](OC)[C@@H](C)C(=O)N[C@H](C)[C@@H](O)c1ccccc1)OC)N(C)C(=O)[C@@H](NC(=O)[C@H](C(C)C)[N+](C)(C)Cc1ccc(O[C@@H]2O[C@H](C(=O)[O-])[C@@H](O)[C@H](O)[C@H]2O)cc1OCc1cn(CCCOCC(=O)Nc2ccc(-c3ccc(/N=N/c4ccc5c(S(=O)(=O)[O-])cc(S(=O)(=O)[O-])c(N)c5c4O)c(C)c3)cc2C)nn1)C(C)C.[Na+].[Na+] [Example compound 10]
Outgoing: 26.0 ± 1.0 g

Incoming: Specify reported Body weight (g, x±S.D.) End for the compound shown: CC[C@H](C)[C@@H]([C@@H](CC(=O)N1CCC[C@H]1[C@H](OC)[C@@H](C)C(=O)N[C@H](C)[C@@H](O)c1ccccc1)OC)N(C)C(=O)[C@@H](NC(=O)[C@H](C(C)C)[N+](C)(CC)Cc1ccc(O[C@@H]2O[C@H](C(=O)[O-])[C@@H](O)[C@H](O)[C@H]2O)cc1OCc1cn(CCCCCC(=O)Nc2ccc(-c3ccc(/N=N/c4ccc5c(S(=O)(=O)[O-])cc(S(=O)(=O)[O-])c(N)c5c4O)c(C)c3)cc2C)nn1)C(C)C.[Na+].[Na+] (stereo partly shown) [Example compound 12]
Outgoing: 25.6 ± 2.4 g

Incoming: Specify reported Body weight (g, x±S.D.) End for the compound shown: CC[C@H](C)[C@@H]([C@@H](CC(=O)N1CCC[C@H]1[C@H](OC)[C@@H](C)C(=O)N[C@H](C)[C@@H](O)c1ccccc1)OC)N(C)C(=O)[C@@H](NC(=O)[C@H](C(C)C)[N+](C)(CC)Cc1ccc(O[C@@H]2O[C@H](C(=O)[O-])[C@@H](O)[C@H](O)[C@H]2O)cc1OCc1cn(CCCOCC(=O)Nc2ccc(-c3ccc(/N=N/c4ccc5c(S(=O)(=O)[O-])cc(S(=O)(=O)[O-])c(N)c5c4O)c(C)c3)cc2C)nn1)C(C)C.[Na+].[Na+] (stereo partly shown) [Example compound 11]
Outgoing: 27.0 ± 2.2 g

Now, please, on to the next compound.
Incoming: Specify reported Body weight (g, x±S.D.) End for the compound shown: CC[C@H](C)[C@@H]([C@@H](CC(=O)N1CCC[C@H]1[C@H](OC)[C@@H](C)C(=O)N[C@H](C)[C@@H](O)c1ccccc1)OC)N(C)C(=O)[C@@H](NC(=O)[C@H](C(C)C)[N+](C)(C)Cc1ccc(O[C@@H]2O[C@H](C(=O)[O-])[C@@H](O)[C@H](O)[C@H]2O)cc1OCc1cn(CCOCCC(=O)Nc2ccc(-c3ccc(/N=N/c4ccc5c(S(=O)(=O)[O-])cc(S(=O)(=O)[O-])c(N)c5c4O)c(C)c3)cc2C)nn1)C(C)C.[Na+].[Na+] [Example compound 9]
Outgoing: 28.3 ± 2.9 g

###

system: human ovarian cancer SK-OV-3; assay: Biological Example 5: in vivo xenograft model of human ovarian cancer SK-OV-3; set-up: species or system Balb/c-nu nude mice; conditions: SK-OV-3 xenograft, nude mice, 0.8 mg/kg i.v. qw×3; Start
Provide the recorded Body weight (g, x±S.D.) Start for the entries that follow.

Incoming: Specify reported Body weight (g, x±S.D.) Start for the compound shown: CC[C@H](C)[C@@H]([C@@H](CC(=O)N1CCC[C@H]1[C@H](OC)[C@@H](C)C(=O)N[C@H](C)[C@@H](O)c1ccccc1)OC)N(C)C(=O)[C@@H](NC(=O)[C@H](C(C)C)[N+](C)(CC)Cc1ccc(O[C@@H]2O[C@H](C(=O)[O-])[C@@H](O)[C@H](O)[C@H]2O)cc1OCc1cn(CCCCCC(=O)Nc2ccc(-c3ccc(/N=N/c4ccc5c(S(=O)(=O)[O-])cc(S(=O)(=O)[O-])c(N)c5c4O)c(C)c3)cc2C)nn1)C(C)C.[Na+].[Na+] (some centres unmarked) [Example compound 12]
Outgoing: 24.1 ± 1.2 g

Now, please, on to the next compound.
Incoming: Specify reported Body weight (g, x±S.D.) Start for the compound shown: CC[C@H](C)[C@@H]([C@@H](CC(=O)N1CCC[C@H]1[C@H](OC)[C@@H](C)C(=O)N[C@H](C)[C@@H](O)c1ccccc1)OC)N(C)C(=O)[C@@H](NC(=O)[C@H](C(C)C)[N+](C)(CC)Cc1ccc(O[C@@H]2O[C@H](C(=O)[O-])[C@@H](O)[C@H](O)[C@H]2O)cc1OCc1cn(CCOCCC(=O)Nc2ccc(-c3ccc(/N=N/c4ccc5c(S(=O)(=O)[O-])cc(S(=O)(=O)[O-])c(N)c5c4O)c(C)c3)cc2C)nn1)C(C)C.[Na+].[Na+] (some centres unmarked) [Example compound 8]
Outgoing: 22.9 ± 1.6 g
